meta.source: patent EP4772193A1

System: T1, recombinant human soluble gpNMB (recombinant human gpNMB-FLAG-His) (human, UniProt Q14956 23-498)
T1 sequence: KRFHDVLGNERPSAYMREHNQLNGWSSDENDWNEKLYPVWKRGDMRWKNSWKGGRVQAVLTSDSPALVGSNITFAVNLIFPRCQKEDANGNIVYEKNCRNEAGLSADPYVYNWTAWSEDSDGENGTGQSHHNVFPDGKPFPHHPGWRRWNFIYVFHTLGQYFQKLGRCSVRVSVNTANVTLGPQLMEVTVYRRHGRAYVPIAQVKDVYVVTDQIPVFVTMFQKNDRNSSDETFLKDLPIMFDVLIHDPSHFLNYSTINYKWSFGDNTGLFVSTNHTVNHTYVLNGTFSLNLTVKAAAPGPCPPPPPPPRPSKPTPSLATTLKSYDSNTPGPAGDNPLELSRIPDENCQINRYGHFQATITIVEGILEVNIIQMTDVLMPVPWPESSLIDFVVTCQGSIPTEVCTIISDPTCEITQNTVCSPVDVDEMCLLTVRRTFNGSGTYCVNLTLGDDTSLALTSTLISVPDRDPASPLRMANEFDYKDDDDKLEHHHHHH
Measurement description: antigen ELISA, vs hGPN06-1_H1L1
Measurement kind: Relative binding activity

1) hGPN06-1_H1L1 VL T96A (antibody, V domains shown) VH: QVQLVQSGAEVKKPGASVKVSCKASGYTFTDNWMGWVKQRPGQGLEWIGAIDPSDSFTNYNQNFKGRVTMTVDTSISTAYMELSRLRSDDSAVYFCTRSGYYGSPKLGGDYWGQGTLVTVSS VL: EIVLTQSPSSLSASVGDRVTITCSASSSISYMHWYQQKSGTAPKLLIYSTSNLASGVPSRFSGSGSGTDFTFTISSLQPEDAATYYCHQWNSYPCAFGGGTKLEIK | 0.83
